- target: α-glucosidase from Saccharomyces cerevisiae (GH13)
- assayRemarks: Ki determination, S. cerevisiae α-glucosidase
- conditionParameters: pH 7.0, substrate pNP α-Glc, room temperature; read-out: Ki S. cer. (GH13) α-Glc
pKi: −log10 of the molar value.

{"columns": ["smilesRecord", "readingQualifier", "pKi"],
 "data": [
  ["[N-]=[N+]=NCCOCCOc1ccc(C(=O)OCCCCCCN2C[C@@H](O)[C@H](O)[C@@H](O)C2)cc1", "<", 3.00],
  ["C#CCOc1ccc(C(=O)OCCCCCCN2C[C@@H](O)[C@H](O)[C@@H](O)C2)cc1", "=", 3.57],
  ["CN(C)c1cccc2c(S(=O)(=O)NCCc3ccc(C(=O)OCCCCCCN4C[C@H](O)[C@@H](O)[C@H](O)[C@H]4CO)cc3)cccc12", "=", 5.06],
  ["C#CCOc1ccc(C(=O)OCCCCCCN2C[C@H](O)[C@@H](O)[C@H](O)[C@H]2CO)cc1", "=", 5.31],
  ["O=C(NCCc1ccc(C(=O)OCCCCCCN2C[C@H](O)[C@@H](O)[C@H](O)[C@H]2CO)cc1)OCc1ccccc1", "=", 5.09],
  ["O=C(OCCCCCCN1C[C@@H](O)[C@H](O)[C@@H](O)C1)c1ccc(OCCOCCOC(C(F)(F)F)(C(F)(F)F)C(F)(F)F)cc1", "<", 3.00],
  ["N#CCCCCCOc1ccc(C(=O)OCCCCCCN2C[C@@H](O)[C@H](O)[C@@H](O)C2)cc1", "<", 3.00],
  ["[N-]=[N+]=NCCOCCOc1ccc(C(=O)OCCCCCCN2C[C@H](O)[C@@H](O)[C@H](O)[C@H]2CO)cc1", "=", 3.66],
  ["O=C(NCCc1ccc(C(=O)OCCCCCCN2C[C@@H](O)[C@H](O)[C@@H](O)C2)cc1)OCc1ccccc1", "<", 3.00],
  ["N#CCCCCCOc1ccc(C(=O)OCCCCCCN2C[C@H](O)[C@@H](O)[C@H](O)[C@H]2CO)cc1", "=", 4.63],
  ["CN(C)c1cccc2c(S(=O)(=O)NCCc3ccc(C(=O)OCCCCCCN4C[C@@H](O)[C@H](O)[C@@H](O)C4)cc3)cccc12", "<", 3.00],
  ["O=C(OCCCCCCN1C[C@H](O)[C@@H](O)[C@H](O)[C@H]1CO)c1ccc(OCCOCCOC(C(F)(F)F)(C(F)(F)F)C(F)(F)F)cc1", "<", 3.00]
]}

---

- target: β-glucosidase/β-galactosidase from Agrobacterium sp. (Abg, GH1) (Agrobacterium sp.)
- Sequence (P12614 1-459): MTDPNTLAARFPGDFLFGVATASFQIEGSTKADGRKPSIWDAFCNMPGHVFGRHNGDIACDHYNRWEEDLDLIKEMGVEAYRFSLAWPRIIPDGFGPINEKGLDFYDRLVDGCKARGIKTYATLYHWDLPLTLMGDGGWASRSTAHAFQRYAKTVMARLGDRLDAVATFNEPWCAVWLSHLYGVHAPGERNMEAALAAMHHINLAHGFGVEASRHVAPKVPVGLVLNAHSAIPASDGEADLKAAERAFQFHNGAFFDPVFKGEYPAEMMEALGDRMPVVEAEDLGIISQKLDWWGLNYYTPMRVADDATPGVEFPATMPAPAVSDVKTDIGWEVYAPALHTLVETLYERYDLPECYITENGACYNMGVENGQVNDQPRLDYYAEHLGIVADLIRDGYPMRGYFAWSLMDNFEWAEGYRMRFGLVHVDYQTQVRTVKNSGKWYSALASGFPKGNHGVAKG
- assayRemarks: Ki determination, Agrobacterium sp. β-glucosidase (Abg)
- conditionParameters: pH 7, substrate pNP β-Gal, room temperature; read-out: Ki Abg (GH1) β-Glc/Gal
pKi: −log10 of the molar value.
# cutoff 5 applies to pKi; >= gives YES, < gives NO

{"columns": ["smilesRecord", "classLabel"],
 "data": [
  ["[N-]=[N+]=NCCOCCOc1ccc(C(=O)OCCCCCCN2C[C@H](O)[C@@H](O)[C@H](O)[C@H]2CO)cc1", "YES"],
  ["O=C(OCCCCCCN1C[C@@H](O)[C@H](O)[C@@H](O)C1)c1ccc(OCCOCCOC(C(F)(F)F)(C(F)(F)F)C(F)(F)F)cc1", "NO"],
  ["N#CCCCCCOc1ccc(C(=O)OCCCCCCN2C[C@H](O)[C@@H](O)[C@H](O)[C@H]2CO)cc1", "YES"],
  ["O=C(NCCc1ccc(C(=O)OCCCCCCN2C[C@@H](O)[C@H](O)[C@@H](O)C2)cc1)OCc1ccccc1", "YES"]
]}

---

- target: recombinant human lysosomal β-glucocerebrosidase (GCase, GH30) (Homo sapiens, UniProt P04062)
- Sequence (P04062 40-536): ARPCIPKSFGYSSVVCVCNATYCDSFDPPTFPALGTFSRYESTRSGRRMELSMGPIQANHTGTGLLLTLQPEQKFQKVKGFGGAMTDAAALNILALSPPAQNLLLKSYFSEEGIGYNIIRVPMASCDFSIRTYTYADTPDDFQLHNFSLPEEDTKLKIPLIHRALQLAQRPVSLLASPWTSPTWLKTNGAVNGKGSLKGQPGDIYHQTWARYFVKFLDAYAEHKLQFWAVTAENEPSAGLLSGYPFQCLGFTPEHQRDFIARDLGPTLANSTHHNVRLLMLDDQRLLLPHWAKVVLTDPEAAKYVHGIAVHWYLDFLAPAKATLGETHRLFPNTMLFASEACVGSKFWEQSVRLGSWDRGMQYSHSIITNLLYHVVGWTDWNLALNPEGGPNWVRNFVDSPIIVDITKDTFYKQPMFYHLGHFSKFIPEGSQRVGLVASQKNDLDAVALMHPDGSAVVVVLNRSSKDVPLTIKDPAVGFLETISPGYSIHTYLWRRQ
- assayRemarks: Ki determination, GCase (β-glucocerebrosidase)
- Format: biochemical
- conditionParameters: values repeated in running text; read-out: Ki for GCase
observationType: Ki (nM)

{"columns": ["compound", "observationType", "recordedNumber"],
 "data": [
  ["CN(C)c1cccc2c(S(=O)(=O)NCCc3ccc(C(=O)OCCCCCCN4C[C@H](O)[C@@H](O)[C@H](O)[C@H]4CO)cc3)cccc12 [Compound 55]", "Ki", 18],
  ["O=C(NCCc1ccc(C(=O)OCCCCCCN2C[C@H](O)[C@@H](O)[C@H](O)[C@H]2CO)cc1)OCc1ccccc1 [Compound 53]", "Ki", 22]
]}

---

- target: lac Z β-galactosidase from E. coli (GH2) (Escherichia coli, UniProt P00722)
- Sequence (P00722 2-1024 limits assumed): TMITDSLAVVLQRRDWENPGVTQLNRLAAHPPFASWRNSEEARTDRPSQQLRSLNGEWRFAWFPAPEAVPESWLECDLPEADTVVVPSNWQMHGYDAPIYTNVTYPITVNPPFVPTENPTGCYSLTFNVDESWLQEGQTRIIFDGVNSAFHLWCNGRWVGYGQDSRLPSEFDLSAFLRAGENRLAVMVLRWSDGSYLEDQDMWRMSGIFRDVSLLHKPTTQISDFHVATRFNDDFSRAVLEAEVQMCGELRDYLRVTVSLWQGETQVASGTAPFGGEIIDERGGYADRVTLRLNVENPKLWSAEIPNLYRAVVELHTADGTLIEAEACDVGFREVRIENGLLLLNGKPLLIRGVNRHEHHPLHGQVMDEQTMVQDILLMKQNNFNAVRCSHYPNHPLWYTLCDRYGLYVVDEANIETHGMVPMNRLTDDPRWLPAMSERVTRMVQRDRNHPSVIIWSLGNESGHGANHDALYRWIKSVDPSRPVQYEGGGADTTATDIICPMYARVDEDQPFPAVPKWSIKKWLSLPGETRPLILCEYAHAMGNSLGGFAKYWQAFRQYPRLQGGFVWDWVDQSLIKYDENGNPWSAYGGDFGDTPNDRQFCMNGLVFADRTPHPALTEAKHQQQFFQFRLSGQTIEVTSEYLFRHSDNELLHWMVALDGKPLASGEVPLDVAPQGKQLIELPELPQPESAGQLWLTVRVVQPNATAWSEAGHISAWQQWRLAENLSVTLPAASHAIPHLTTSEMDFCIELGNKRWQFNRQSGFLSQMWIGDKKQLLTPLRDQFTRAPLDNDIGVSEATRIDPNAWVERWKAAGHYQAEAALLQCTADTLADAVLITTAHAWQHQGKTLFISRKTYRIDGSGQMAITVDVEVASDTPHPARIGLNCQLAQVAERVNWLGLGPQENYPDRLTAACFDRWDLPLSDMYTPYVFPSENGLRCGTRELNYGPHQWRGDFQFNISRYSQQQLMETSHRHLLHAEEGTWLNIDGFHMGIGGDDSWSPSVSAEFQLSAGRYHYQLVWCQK
- assayRemarks: Ki determination, E. coli lac Z β-galactosidase
- Format: biochemical
- conditionParameters: pH 7, substrate pNP β-Gal, room temperature
// Ki lookup, one value per entry

{"columns": ["smilesRecord", "target", "Ki"],
 "data": [
  ["[N-]=[N+]=NCCOCCOc1ccc(C(=O)OCCCCCCN2C[C@H](O)[C@@H](O)[C@H](O)[C@H]2CO)cc1", "lac Z β-galactosidase from E. coli (GH2) (Escherichia coli, UniProt P00722)", "> 1000 µM"],
  ["O=C(OCCCCCCN1C[C@@H](O)[C@H](O)[C@@H](O)C1)c1ccc(OCCOCCOC(C(F)(F)F)(C(F)(F)F)C(F)(F)F)cc1", "lac Z β-galactosidase from E. coli (GH2) (Escherichia coli, UniProt P00722)", "255 µM"],
  ["C#CCOc1ccc(C(=O)OCCCCCCN2C[C@@H](O)[C@H](O)[C@@H](O)C2)cc1", "lac Z β-galactosidase from E. coli (GH2) (Escherichia coli, UniProt P00722)", "> 1000 µM"],
  ["N#CCCCCCOc1ccc(C(=O)OCCCCCCN2C[C@H](O)[C@@H](O)[C@H](O)[C@H]2CO)cc1", "lac Z β-galactosidase from E. coli (GH2) (Escherichia coli, UniProt P00722)", "> 1000 µM"],
  ["C#CCOc1ccc(C(=O)OCCCCCCN2C[C@H](O)[C@@H](O)[C@H](O)[C@H]2CO)cc1", "lac Z β-galactosidase from E. coli (GH2) (Escherichia coli, UniProt P00722)", "> 1000 µM"],
  ["O=C(OCCCCCCN1C[C@H](O)[C@@H](O)[C@H](O)[C@H]1CO)c1ccc(OCCOCCOC(C(F)(F)F)(C(F)(F)F)C(F)(F)F)cc1", "lac Z β-galactosidase from E. coli (GH2) (Escherichia coli, UniProt P00722)", "> 1000 µM"],
  ["[N-]=[N+]=NCCOCCOc1ccc(C(=O)OCCCCCCN2C[C@@H](O)[C@H](O)[C@@H](O)C2)cc1", "lac Z β-galactosidase from E. coli (GH2) (Escherichia coli, UniProt P00722)", "> 1000 µM"],
  ["O=C(NCCc1ccc(C(=O)OCCCCCCN2C[C@@H](O)[C@H](O)[C@@H](O)C2)cc1)OCc1ccccc1", "lac Z β-galactosidase from E. coli (GH2) (Escherichia coli, UniProt P00722)", "> 1000 µM"],
  ["O=C(NCCc1ccc(C(=O)OCCCCCCN2C[C@H](O)[C@@H](O)[C@H](O)[C@H]2CO)cc1)OCc1ccccc1", "lac Z β-galactosidase from E. coli (GH2) (Escherichia coli, UniProt P00722)", "424 µM"],
  ["CN(C)c1cccc2c(S(=O)(=O)NCCc3ccc(C(=O)OCCCCCCN4C[C@@H](O)[C@H](O)[C@@H](O)C4)cc3)cccc12", "lac Z β-galactosidase from E. coli (GH2) (Escherichia coli, UniProt P00722)", "198 µM"],
  ["CN(C)c1cccc2c(S(=O)(=O)NCCc3ccc(C(=O)OCCCCCCN4C[C@H](O)[C@@H](O)[C@H](O)[C@H]4CO)cc3)cccc12", "lac Z β-galactosidase from E. coli (GH2) (Escherichia coli, UniProt P00722)", "89 µM"],
  ["N#CCCCCCOc1ccc(C(=O)OCCCCCCN2C[C@@H](O)[C@H](O)[C@@H](O)C2)cc1", "lac Z β-galactosidase from E. coli (GH2) (Escherichia coli, UniProt P00722)", "> 1000 µM"]
]}
